Biological target: Estrogen receptor (Homo sapiens)
Test: ERα coactivator recruitment potentiators – biochemical, TR-FRET, ERα LBD, low estradiol, primary screen (AID 639);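 further: binding measured in presence of low estradiol as agonist stimulus; 0% = peptide alone without receptor and 100% = receptor with peptide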
Conditions: TR-FRET ERalpha-LBD/SRC-Cy5 coactivator binding, 2 h; at 25.6 µM; 100 = basal binding, no effect
Screen size: about 86,000 compounds; about 1,200 (1.4%) were called active. No stated cut-off is given here; in the data, active means activity above about 200%; inactive means the rest. Shown is part of a subset that was picked to be rich in actives.
Please state which outcome applies, choosing from active, inactive

Exercise: What was the test verdict on CCC(C)(C(=O)NC1CCCCC1)N(C)C(=O)c1ccc2c(c1)OCO2 (stereo not given) ?
Key: inactive

Exercise: What did the test return for Cn1c(C(=O)NCCCN2CCN(c3cccc(Cl)c3)CC2)cc2c(=O)n(C)c3ccccc3c21 ?
Key: inactive

Exercise: Would you mind telling me which call this test gave CCOc1ccccc1C1C(C(=O)OC)=CN(C)C=C1C(=O)OC ?
Key: inactive

Exercise: Dear colleague, could you share the recorded outcome for Cc1cccc(C)c1NC(=O)CSc1nnc(-c2ccccc2)n1Cc1ccc2c(c1)OCO2 when you have a moment?
Key: inactive

Exercise: Identify the outcome logged in this assay for the molecule shown: CCC(C(=O)NC1CCCC1)N(C(=O)c1snc(C(N)=O)c1N)c1ccc2c(c1)OCCO2 (stereo not given)
Key: active

Exercise: // return assay outcome for CCOc1ccc(CNC(=O)C2CCC(=O)N2C2CCCC2)cc1OC (stereo not given)
Key: inactive

Exercise: For this molecule, state the assay outcome: C/C(=N\NS(=O)(=O)c1ccc(Br)cc1)c1cccs1
Key: inactive

Exercise: Please let me know the test result on file for COc1ccc(C(C)=O)cc1CN1C(=O)NC2(CCCCC2C)C1=O (stereo not given) .
Key: inactive

Exercise: Each molecule tested received a call. Report the one for CC1CCCC(C)N1CCCNC(=O)c1cc2c(=O)n(C)c3ccccc3c2n1C (stereo not given) .
Key: inactive

Exercise: Short answer needed: outcome of this test for Cc1cc(=O)oc2cc(OCC3CC(c4ccccc4Cl)=NO3)ccc12 (stereo not given) ?
Key: inactive

====

Target: Estrogen receptor (Homo sapiens)
Assay: ERα coactivator recruitment potentiators – biochemical, TR-FRET, ERα LBD, low estradiol, primary screen (AID 639)
Details: TR-FRET ERalpha-LBD/SRC-Cy5 coactivator binding, 2 h; at 25.6 µM; 100 = basal binding, no effect
Out of some 86,000 compounds screened, about 1,200 (1.4%) were called active. Rule as the data show it: active = activity above about 200%; inactive = the rest. This is one part of a sample in which actives are shown more often than they occur.
Your reply should match one of these outcome classes. active, inactive

Exercise: Can you look up the reported call for CCOc1nc(-c2ccc(OC)cc2)ccc1-c1noc(-c2cc(OC)c(OC)c(OC)c2)n1 for me?
Key: active

Exercise: // return assay outcome for COc1ccc(C(=O)Nc2nc(-c3ccc(S(=O)(=O)N4CCOCC4)cc3)cs2)cc1
Key: active

Exercise: I would be grateful if you could indicate the recorded call for O=C(Nc1nc2cc3c(cc2s1)OCCO3)c1cccc(S(=O)(=O)N2CCOCC2)c1 .
Key: inactive

Exercise: Query: recorded result category for CCOC(=O)c1csc(NC(=O)c2ccc(S(=O)(=O)N3CCCC3)cc2)n1 in this test
Key: inactive

Exercise: Lab log entry: COc1ccc(-c2ccc(-c3noc(-c4ccncc4)n3)c(OC)n2)cc1 — outcome as called in the assay?
Key: inactive

Exercise: // param item: O=C(Nc1nc2ccc(S(=O)(=O)N3CCCC3)cc2s1)C1CCCO1 (stereo not given) ; yields the recorded call
Key: inactive

Exercise: Tell me the recorded outcome of this test for O=C(c1ccc2c(c1)OCO2)N1CCN(C(=O)c2ccco2)CC1 .
Key: inactive

Exercise: Test call for this molecule, please: Cc1cc(C)c2c(n1)nn1c(N3CCN(c4cccc(Cl)c4)CC3)cc(C)nc21
Key: inactive

Exercise: GET /call?item= COc1ccc(S(=O)(=O)N2CCOCC2)cc1C(=O)Nc1nc2ccccc2s1 returns the recorded outcome of this test.
Key: active

Exercise: Short answer needed: outcome of this test for COC(=O)COc1ccc(S(=O)(=O)N2CCOCC2)cc1 ?
Key: inactive

====

Target: Estrogen receptor (Homo sapiens) (UniProt P03372)
Sequence (P03372 whole entry, looked up, the tested form may be a part): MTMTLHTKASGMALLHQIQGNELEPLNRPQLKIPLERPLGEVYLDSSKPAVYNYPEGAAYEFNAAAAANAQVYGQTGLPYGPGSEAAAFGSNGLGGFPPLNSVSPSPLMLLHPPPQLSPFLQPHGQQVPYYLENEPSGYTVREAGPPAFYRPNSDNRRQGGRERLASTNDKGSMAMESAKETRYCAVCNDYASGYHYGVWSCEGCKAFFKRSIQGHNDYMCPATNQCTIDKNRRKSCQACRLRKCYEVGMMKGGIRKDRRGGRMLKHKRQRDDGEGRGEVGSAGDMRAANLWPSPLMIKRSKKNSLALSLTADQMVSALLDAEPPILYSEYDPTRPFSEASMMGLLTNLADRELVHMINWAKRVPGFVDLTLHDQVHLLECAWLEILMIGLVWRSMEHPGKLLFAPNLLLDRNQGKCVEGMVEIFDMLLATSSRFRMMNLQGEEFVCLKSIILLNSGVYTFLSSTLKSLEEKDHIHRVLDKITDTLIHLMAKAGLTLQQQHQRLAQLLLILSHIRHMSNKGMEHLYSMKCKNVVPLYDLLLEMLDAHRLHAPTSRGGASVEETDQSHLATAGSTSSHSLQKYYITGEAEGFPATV
Experiment: ERα coactivator recruitment potentiators – biochemical, TR-FRET, ERα LBD, low estradiol, primary screen (AID 639);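 further: binding measured in presence of low estradiol as agonist stimulus; 0% = peptide alone without receptor and 100% = receptor with peptide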
Conditions: TR-FRET ERalpha-LBD/SRC-Cy5 coactivator binding, 2 h; at 25.6 µM; 100 = basal binding, no effect
Screen size: about 86,000 compounds; about 1,200 (1.4%) were called active. Cut-off read from the data, not from the text of the source: active = activity above about 200%; inactive = the rest. The entries come from a sample that favours actives as a whole.
Outcomes you can answer with include only these: true (1) = active, false (0) = inactive

Exercise: For this molecule, state the assay outcome: CC(=NCc1ccco1)c1c(C(F)(F)F)[nH]n(-c2nc3ccccc3s2)c1=O
Key: false (0)

Exercise: Which result was noted for this molecule in the test: CCn1c(SCC(=O)Nc2cccc(F)c2)nnc1-c1cc2cc(Br)ccc2o1
Key: true (1)

Exercise: How did this test come out for Cc1cccc2cc(C#N)c(N3CCCC3)nc12 ?
Key: false (0)

Exercise: What was the test verdict on CCn1c(Cc2ccccc2)nnc1SCC(=O)Nc1ccccc1 ?
Key: false (0)

Exercise: Hi, do you know how Cc1cccc(C(=O)Nc2ccccc2N2CCN(c3ccc(F)cc3)CC2)c1 came out in this test?
Key: false (0)

Exercise: I'd appreciate the recorded outcome for Cc1cc(C)nc(-n2nc(C)cc2NC(=O)c2ccc(Br)o2)n1 from this test.
Key: true (1)

Exercise: For CCOCCCNC(=O)C(NC(=O)c1ccc(=O)[nH]c1)c1ccc(C)cc1 (stereo unspecified) , what call appears in the results of this test?
Key: false (0)

Exercise: Status in this test for CC(=O)c1ccc(S(=O)(=O)N2CCN(c3nc4c(C)c(C)ccc4cc3C#N)CC2)cc1 ?
Key: true (1)

Exercise: Status in this test for Cc1cc(C)c2nc(N3CCCC3)c(C#N)cc2c1 ?
Key: false (0)

Exercise: // outcome(item) with item = CCSc1nnc(NC(=O)Cc2ccccc2OC)s1
Key: true (1)

Exercise: Could you kindly confirm the outcome this assay logged for CCSc1nnc(NC(=O)c2ccc(C)cc2)s1 ?
Key: false (0)

====

Provide the recorded coactivator binding (% of control) for the entries that follow.
Target: Estrogen receptor (Homo sapiens) (UniProt P03372)
Assay: ERα coactivator recruitment potentiators – biochemical, TR-FRET, ERα LBD, low estradiol, primary screen (AID 639);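 further: binding measured in presence of low estradiol as agonist stimulus; 0% = peptide alone without receptor and 100% = receptor with peptide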
Conditions: TR-FRET ERalpha-LBD/SRC-Cy5 coactivator binding, 2 h; at 25.6 µM; active compounds read high; 100 = basal binding, no effect
In all, about 86,000 compounds went through this assay and about 1,200 (1.4%) were called active. This excerpt belongs to a sample that is enriched for actives.
Entry rule: numbers only, all in %.

Exercise: Query: coactivator binding (% of control); subject: COc1ccc(NC(=O)CSc2nnc(-c3cccs3)n2Cc2ccco2)cc1OC
Key: 95.3

Exercise: Which coactivator binding (% of control) value belongs to Cc1nc2c(-c3ccc(F)cc3)c(C)nn2c(C)c1CCC(=O)NCc1ccco1 ?
Key: 96.1

Exercise: Endpoint output: coactivator binding (% of control) of COc1ccc(C(=O)Cn2nnc(-c3ccc(N4CCOCC4)cc3)n2)cc1OC . Value?
Key: 240

Exercise: Can you look up the measured coactivator binding (% of control) of COc1cc(Cl)c(C)cc1NC(=O)CSc1nnc(-c2cccnc2)n1Cc1ccco1 for me?
Key: 90.9

Exercise: Given Cc1cc(C)n(-c2nc(O)cc(=O)[nH]2)n1 , state its recorded coactivator binding (% of control).
Key: 103

Exercise: Fill in: coactivator binding (% of control) of COC(=O)c1ccccc1NC(=O)Cc1ccccc1OC is ___
Key: 120

Exercise: Please look up its coactivator binding (% of control): CCOc1ccc(-c2nnn(CC(=O)N3CCN(c4ccc(OC)cc4)CC3)n2)cc1OCC
Key: 87.8

Exercise: Report coactivator binding (% of control) for CC(=O)c1cccc(NC(=O)C2CCCN2S(=O)(=O)c2cccc3nsnc23)c1 (stereo unspecified) please.
Key: 87.3

Exercise: Which coactivator binding (% of control) value belongs to COc1ccc(N2CCN(Cc3ccc(Br)s3)CC2)cc1 ?
Key: 108

Exercise: Any idea what its coactivator binding (% of control) is? The compound is O=C(Cn1nnc(-c2ccc(CN3CCOCC3)cc2)n1)NC1CCCCC1
Key: 123

Exercise: Need coactivator binding (% of control) of Cc1cccc(-c2nc3c(c(SCC(=O)N4CCOCC4)n2)CCCC3)c1 , thanks.
Key: 94.4

====

Molecular target: Estrogen receptor (Homo sapiens)
Assay: ERα coactivator recruitment potentiators – biochemical, TR-FRET, ERα LBD, low estradiol, primary screen (AID 639);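 further: binding measured in presence of low estradiol as agonist stimulus; 0% = peptide alone without receptor and 100% = receptor with peptide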
Details: TR-FRET ERalpha-LBD/SRC-Cy5 coactivator binding, 2 h; at 25.6 µM; 100 = basal binding, no effect
The whole screen tested about 86,000 compounds, of which about 1,200 (1.4%) were called active. No stated cut-off is given here; in the data, active means activity above about 200%; inactive means the rest. What follows is part of a selection rich in actives, with near analogues and random picks from the rest.
Permitted responses: label 1 = active, label 0 = inactive

Exercise: Called result for CSc1nnc2c(n1)OC(c1ccsc1)N(C(C)=O)c1ccccc1-2 (stereo not drawn)
Key: label 1

Exercise: What did the test return for CCOc1ccc(NC(=O)CN(C)CC(=O)Nc2cccc(Cl)c2C)cc1OCC ?
Key: label 0

Exercise: I would be grateful if you could indicate the recorded call for c1ccc(CCn2nnnc2CN2CCN(C3CCCC3)CC2)cc1 .
Key: label 0

Exercise: Look up the recorded call for CCOc1cccc(NC(=O)CC#N)c1 in this test.
Key: label 0

Exercise: What is the recorded call for this compound in the test? COc1ccc(-c2nnc(SCC(=O)c3ccc4c(c3)OCCO4)o2)cc1
Key: label 1

Exercise: # fetch the recorded call for CSc1nnc2c(n1)OC(c1cn(C)c3ccccc13)N(C(C)=O)c1ccccc1-2 (stereo not drawn) here
Key: label 0

Exercise: Field: outcome | Entry: O=C(OC1CCCCC1=O)c1cccc(S(=O)(=O)NCc2ccccc2)c1 (stereo not drawn)
Key: label 0

Exercise: Each compound tested received a call. Report the one for c1ccc(C(c2ccccc2)N2CCN(Cc3nnnn3C3CCCCC3)CC2)cc1 .
Key: label 1

Exercise: Look up the recorded call for O=C1/C(=C/c2cccs2)CCc2ccccc21 in this test.
Key: label 0

Exercise: Identify the outcome logged in this assay for the compound shown: COc1ccc(-n2ncc3c(N4CCc5ccccc54)ncnc32)cc1
Key: label 1

Exercise: Which outcome was assigned to CO/N=C(/CS(=O)(=O)c1ccc(Br)cc1)c1ccc(OC)cc1 in this test?
Key: label 0

Exercise: Record request — test call for COc1ccc(CN(C(=O)CSc2nnc(-c3ccc(OC)c(OC)c3)o2)c2ccc(F)cc2)cc1
Key: label 0

Exercise: Hello, I am checking results. What call was entered for O=C(CSc1nc2cccnc2n1Cc1ccccc1)N1CCc2ccccc21 ?
Key: label 0

Exercise: Hi team, can someone confirm the assay call for CCOc1cc2[nH]c(=S)n(Cc3ccc(C(=O)NCCOC)cc3)c(=O)c2cc1OCC ?
Key: label 0

Exercise: Query: recorded result category for CCN(CC)C(=O)CSc1nnc(-c2cccc(OC)c2)o1 in this test
Key: label 0

Exercise: Hey, what did the test say about Cc1c(-c2ccccc2)nc(N)c(C#N)c1-c1cccs1 ?
Key: label 0

Exercise: Which outcome was assigned to CCN(CC(=O)Nc1ccccc1OC)C(=O)Cn1cnc2ccccc2c1=O in this test?
Key: label 0

Exercise: Write down the call the test reported for this compound. Item: CC1(C)CC(=O)C=C(N2CCCC2)C1
Key: label 0

Exercise: Given COc1ccc(C(c2nnnn2C2CCCCC2)N2CCN(c3ccccc3F)CC2)cc1 (stereo not drawn) , state the outcome it received in this test.
Key: label 0

Exercise: Call for entry CCc1c(-c2ccccc2)nc(N)c(C#N)c1-c1cccs1 :
Key: label 0

Exercise: Record lookup: outcome of this test for COCCn1c(SCc2nc3cc(OC)c(OC)cc3c(=O)[nH]2)nnc1-c1ccncc1 ?
Key: label 0

Exercise: Which outcome was entered for the compound CCOc1ccc(C(=O)NCCCN2CCCC2=O)cc1 in this test?
Key: label 0

Exercise: Check the results log: what was the call for CC1CCN(C(=O)c2cc3nc(C4CC4)cc(C(F)(F)F)n3n2)CC1 ?
Key: label 0
